System: HS 578T breast
Test: NCI-60 one-dose screen, 48 h (100 = growth as untreated, 0 = no growth, -100 = all killed)
Conditions: 10 µM unless noted
Procedure: Growth inhibition of the HS 578T human tumor cell line is measured as a screen for anti-cancer activity. Cells are grown in 96 well plates and exposed to the test compound for 48 hours. Compounds are tested at a single concentration, which is 10^-5 M for most compounds. The reported endpoint is percent growth (GI% or GIPRCNT), where numbers from 0 - 100% represent growth inhibition, and numbers from -100% - 0 represent cell death. For example, a value of 40 represents 60% growth inhibition. […]
This is part of a sample that, as a whole, favours compounds with a hit. Of some 83,000 tested, about 20% had one in any assay.
Parameter growth: see the listing below.
Write the number in % without appending the unit.

Here are 6 compounds together with their reported answers.
Compound | Reported property | Quantitative readout
N#C/C(=C\c1ccc(Br)cc1)n1nnc2ccccc21 | growth | 19.4
C[C@@H]1CC[C@@H]2[C@@H]1[C@H](OC(=O)/C=C/c1ccccc1)[C@]1(CCCOCCOCCOCCOC(=O)CCCC[C@@H]3SC[C@@H]4NC(=O)N[C@@H]43)C[C@@H](OC(=O)CO)[C@@]2(C)O1 | growth | 99.5
Cc1ccc(C)c2c1C(=O)OC2=O | growth | 114
COc1cc(-c2cccc([N+](=O)[O-])c2)c(-c2nc(-c3ccccc3)c(-c3ccccc3)n2C2CC2)cc1OC | growth | 83.4
C=C(C)[C@@H]1CC[C@@]2(C(=O)O)CC[C@]3(C)C(CCC4[C@@]5(C)CCC(OS(=O)(=O)c6ccccc6)C(C)(C)C5CC[C@]43C)C12 (stereo partly drawn) | growth | 67.5
Cn1nnnc1-c1ccc(N)cc1 | growth | 96.8

For record C=C1c2c(C)nn(-c3ccc(O)cc3)c2N(C)C23C[C@@H]1C1(C)c4c(C)nn(-c5ccc(O)cc5)c4N(C)C(C)(C[C@H]12)C3 (stereo partly drawn) the listed growth is 52.4

For record Cc1cccc(-c2cc(O)c(C(=O)N3CCOCC3)s2)c1 the listed growth is 53.8

For record CCN(CCO)CC(=O)c1cc(Cl)cc(Cl)c1Cl the listed growth is 101

For record O=C(C[C@@]1(O)C(=O)Nc2c(Cl)ccc(Cl)c21)c1ccc(C2CC2)cc1 the listed growth is 7.19

For record O=C1C=CC(=Nc2cc(Br)c(O)c(Br)c2)C=C1 the listed growth is 83.8

For record CN1CCN(C(=O)[C@@]2(C)CC[C@]3(C)CC[C@]4(C)C(=CC[C@@H]5[C@@]6(C)C/C(=C/c7ccncc7)C(=O)C(C)(C)[C@@H]6CC[C@]54C)[C@@H]3C2)CC1 the listed growth is 54

For record COC(=O)[C@]12CC[C@@H](C)[C@H](C)[C@@H]1C1=CC[C@@H]3[C@@]4(C)C(C=O)=C[C@@](C)(CO)C4=CC[C@@]3(C)[C@]1(C)CC2 the listed growth is 47.5

For record COc1cc2c(cc1OC)-c1ccc3cc4c(cc3c1N(CCN(C)C)C2)OCO4 the listed growth is -2.39

----------
system: MDA-MB-435 melanoma; assay: NCI-60 one-dose screen, 48 h (100 = growth as untreated, 0 = no growth, -100 = all killed); conditions: 10 µM unless noted
This is part of a sample that, as a whole, favours compounds with a hit. Of some 83,000 tested, about 20% had one in any assay.
Kindly apply the following: condition met if growth is less than 70%, condition not met in every other case.

Compound | Label
O=C1NCC(=O)N(Cc2ccco2)[C@H]1Cc1ccccc1 | condition not met
Cc1ccc(-n2nnc(C3=NCCc4c3[nH]c3ccc(Cl)cc43)c2C)cc1 | condition not met
NC(=Nc1ccc(N)cc1)C(N)=Nc1ccc(N)cc1 | condition not met
[2H]c1nc(Nc2ncc(F)c(-c3cc(F)c4nc(C)n(C(C)C)c4c3)n2)c([2H])c([2H])c1CN1CCN(C([2H])([2H])C([2H])([2H])[2H])CC1 | condition met
Cc1cnc(Nc2ccc(N3CCN(C)CC3)cc2)nc1Nc1ccc(Cl)c(NS(=O)(=O)C(C)(C)C)c1 | condition met

Does the reported growth of CCN(CC)CCOC(=O)N1c2ccccc2Sc2ccccc21 stay below 70%?
condition not met

Does the reported growth of Cn1ncc2c(Nc3ccc(Br)cc3)nc(Nc3ccc(Br)cc3)nc21 stay below 70%?
condition met

Does the reported growth of N=C(N)c1ccc(-c2ccc(/C=C/c3ccccc3)s2)cc1 stay below 70%?
condition met
